- Tested on: E. coli 078
- Assay Procedure: agar plate dilution method, MIC
- Assay type: cell-based
- Measurement Parameters: about 10^7 CFU/ml, 37° C., 18 hours
Each item that follows carries a reported minimum inhibitory concentration.
Lab note: record the figure alone, no unit after it.

Here's what some known entries look like.
                                   molecule  data_value
0  C[C@@H](O)[C@H]1C(=O)N2C(C(=O)O)=C([C@H](O)C3CC3)[C@H](C)[C@H]12       0.098
1  C[C@@H](O)[C@H]1C(=O)N2C(C(=O)O)=C([C@H](O)C3CCCC3)[C@H](C)[C@H]12       0.195
2  C[C@@H](O)[C@H]1C(=O)N2C(C(=O)O)=C([C@H]3CCCO3)S[C@H]12 [SUN-5555, reference compound]       0.195

For the next question, use this molecule.
Q) Please give the measured minimum inhibitory concentration for this molecule: CC(C)[C@@H](O)C1=C(C(=O)O)N2C(=O)[C@H]([C@@H](C)O)[C@H]2[C@H]1C
A) 0.049

* * *

- Assay Procedure: bioavailability indices in infected mice, one-compartment oral model
- Parameters: species or system I.C.R. mouse
- Measurement Parameters: mouse, in vivo, po, 40 mg/kg
- Procedure: The in vivo antibacterial activities and pharmacological activities of the β-methylcarbapenem compounds of the present invention were tested as follows. […] The bioavailability indices, e.g., Cmax, Tmax, t1/2, AUC and p.o./s.c. were determined in accordance with one-compartment oral model method(Drug Metabolism Reviews, 17, 331-348(1986)). […]
Parameter: half-life (min)
Numeric only. Scale: min

>>> print(df.to_string())
                                   compound  data_value
0  CC(C)OC(=O)OC(C)OC(=O)C1=C([C@H](O)C(C)C)[C@H](C)[C@@H]2[C@@H]([C@@H](C)O)C(=O)N12 (stereo partly drawn)        19.8
1  Cc1oc(=O)oc1COC(=O)C1=C([C@H](O)C(C)C)[C@H](C)[C@@H]2[C@@H]([C@@H](C)O)C(=O)N12        16.2

Q) Field request: half-life | item: C[C@@H](O)[C@H]1C(=O)N2C(C(=O)O)=C([C@H]3CCCO3)S[C@H]12 [SUN-5555, reference compound]
A) 22.8

* * *

- Assay Procedure: bioavailability indices in infected mice, one-compartment oral model
- Parameters: species or system I.C.R. mouse
- Measurement Parameters: in vivo, po; I.C.R. mouse infected with S. pyogenes 77A, per os, 40 mg/kg, 10% DMSO; read-out: Tmax
Parameter: Tmax (min)
Quick reminder: number only, in min, skip the unit.

Q) Which Tmax is listed for C[C@@H](O)[C@H]1C(=O)N2C(C(=O)O)=C([C@H]3CCCO3)S[C@H]12 [SUN-5555, reference compound] ?
A) 25.2

* * *

- Assay Procedure: bioavailability indices in infected mice, one-compartment oral model
- Set-up: species or system I.C.R. mouse
- Measurement Parameters: mouse, in vivo, po, 40 mg/kg
Parameter: Tmax
Number first, unit second.

                                   molecule  parameter  data_value
0  Cc1oc(=O)oc1COC(=O)C1=C([C@H](O)C(C)C)[C@H](C)[C@@H]2[C@@H]([C@@H](C)O)C(=O)N12       Tmax    10.2 min

Could you now consider this next molecule?
Q) Name the reported Tmax value associated with the molecule CC(C)OC(=O)OC(C)OC(=O)C1=C([C@H](O)C(C)C)[C@H](C)[C@@H]2[C@@H]([C@@H](C)O)C(=O)N12 (some centres unmarked)
A) 19.8 min
